assay: in vitro; settings: human
Measured Metric: CC50 at 3 days (µM)
Give just the numeric value; µM need not be written.

For record COc1c(C(C)(C)C)cc(-c2ccc[nH]c2=O)c2ncc(N3CC[C@H](CNS(C)(=O)=O)C3)cc12 [Compound I-18] the listed CC50 at 3 days is 30.3

====

molecular target: HCV polymerase (NS5B570n-Con1) (Hepatitis C virus genotype 1b, UniProt Q9WMX2); construct: contains a 21 amino acid deletion at the C-terminus relative to the full-length HCV polymerase; 6-histidine (N); test: HCV NS5B RNA Polymerase Activity
Measured pIC50 of individual entries
// returns pIC50 (minus log10 of molar concentration), number only

For record "COc1c(C(F)(F)F)cc(N2CCC(=O)NC2=O)c2ncc(-c3ccc(NS(C)(=O)=O)cc3)cc12" the listed pIC50 is 8.74
